Recorded -log Q by entry
target: αvβ6 Rezeptor (Homo sapiens, UniProt P06756+P18564)
Construct: Die Immobilisierung von löslichem αvβ6 Rezeptor auf Microtiterplatten
Sequence (P06756 31-992 limits assumed): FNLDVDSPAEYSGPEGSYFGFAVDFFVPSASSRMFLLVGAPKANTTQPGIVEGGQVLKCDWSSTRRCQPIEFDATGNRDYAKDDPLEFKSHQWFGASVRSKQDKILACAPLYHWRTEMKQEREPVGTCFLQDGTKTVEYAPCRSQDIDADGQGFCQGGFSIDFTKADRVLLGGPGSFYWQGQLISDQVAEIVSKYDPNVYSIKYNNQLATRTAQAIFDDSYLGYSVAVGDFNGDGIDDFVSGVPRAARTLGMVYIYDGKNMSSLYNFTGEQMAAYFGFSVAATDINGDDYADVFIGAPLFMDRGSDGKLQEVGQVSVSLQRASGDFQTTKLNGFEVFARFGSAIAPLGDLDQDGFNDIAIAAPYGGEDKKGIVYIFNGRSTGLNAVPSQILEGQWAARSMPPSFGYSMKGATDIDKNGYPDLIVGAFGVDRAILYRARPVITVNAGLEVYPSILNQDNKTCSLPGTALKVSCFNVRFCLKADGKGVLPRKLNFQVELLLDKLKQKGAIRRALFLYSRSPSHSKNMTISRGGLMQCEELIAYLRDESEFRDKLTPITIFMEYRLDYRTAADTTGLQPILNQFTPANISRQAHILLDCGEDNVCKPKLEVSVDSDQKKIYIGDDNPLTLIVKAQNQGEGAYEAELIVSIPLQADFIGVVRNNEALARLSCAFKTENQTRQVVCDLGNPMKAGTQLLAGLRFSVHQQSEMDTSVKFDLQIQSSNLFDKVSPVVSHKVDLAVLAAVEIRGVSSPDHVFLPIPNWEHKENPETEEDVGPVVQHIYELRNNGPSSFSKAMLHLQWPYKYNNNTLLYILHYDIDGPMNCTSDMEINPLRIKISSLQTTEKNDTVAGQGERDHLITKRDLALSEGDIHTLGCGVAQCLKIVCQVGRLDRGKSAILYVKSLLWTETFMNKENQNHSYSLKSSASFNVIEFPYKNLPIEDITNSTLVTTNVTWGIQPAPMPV
Sequence (P18564 22-709 limits assumed): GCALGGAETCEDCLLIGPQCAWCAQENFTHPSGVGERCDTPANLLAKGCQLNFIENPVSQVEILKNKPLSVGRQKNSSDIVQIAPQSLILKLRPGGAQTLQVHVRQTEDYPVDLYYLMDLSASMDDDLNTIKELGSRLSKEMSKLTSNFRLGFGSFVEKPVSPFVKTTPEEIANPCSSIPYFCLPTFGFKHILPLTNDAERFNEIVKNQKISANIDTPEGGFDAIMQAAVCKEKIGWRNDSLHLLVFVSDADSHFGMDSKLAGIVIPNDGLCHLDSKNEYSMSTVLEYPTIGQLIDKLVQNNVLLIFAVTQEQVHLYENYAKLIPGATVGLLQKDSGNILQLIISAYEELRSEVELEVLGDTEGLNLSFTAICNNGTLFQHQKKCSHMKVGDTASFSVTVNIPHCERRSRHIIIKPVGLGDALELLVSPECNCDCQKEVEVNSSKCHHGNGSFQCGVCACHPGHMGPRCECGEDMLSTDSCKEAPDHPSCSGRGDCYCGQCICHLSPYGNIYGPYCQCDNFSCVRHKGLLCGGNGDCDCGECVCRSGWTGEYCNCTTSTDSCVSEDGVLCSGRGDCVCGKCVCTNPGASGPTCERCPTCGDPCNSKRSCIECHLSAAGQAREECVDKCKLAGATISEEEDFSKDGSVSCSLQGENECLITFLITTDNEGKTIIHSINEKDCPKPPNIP
experimental.details: αvβ6 / fibronectin receptor binding test (competition of peptide with biotinylated fibronectin on immobilised integrin, ELISA read-out)
reported.conditions: peptides Cyclo-(Arg-Gly-Asp-Leu-D-Asp-Ala-Leu-Arg-R^1), labelled by R^1; Q = IC50[Substanz] / IC50[EMD 271293]
Non-standard residues stand in square brackets, D forms with d. Residues, ends and D or L forms follow the SMILES beside them.

>  <compound>
CC(C)C[C@@H]1NC(=O)[C@H](C)NC(=O)[C@@H](CC(=O)O)NC(=O)[C@H](CC(C)C)NC(=O)[C@H](CC(=O)O)NC(=O)CNC(=O)[C@H](CCCNC(=N)N)NC(=O)CNC(=O)CNC(=O)CNC(=O)CNC(=O)CNC(=O)CNC(=O)[C@H](CCCNC(=N)N)NC1=O [EMD 271594, cyclo-(RGDLdALRGGGGGG)] (cyclo(RGDL[dD]ALRGGGGGG))

>  <-log Q>
1,301

$$$$
>  <compound>
CC(C)C[C@@H]1NC(=O)[C@H](C)NC(=O)[C@@H](CC(=O)O)NC(=O)[C@H](CC(C)C)NC(=O)[C@H](CC(=O)O)NC(=O)CNC(=O)[C@H](CCCNC(=N)N)NC(=O)CNC(=O)CNC(=O)CNC(=O)CNC(=O)[C@H](CCCNC(=N)N)NC1=O [EMD 272961, cyclo-(RGDLdALRGGGG)] (cyclo(RGDL[dD]ALRGGGG))

>  <-log Q>
1,481

$$$$
>  <compound>
CC(C)C[C@@H]1NC(=O)[C@H](C)NC(=O)[C@@H](CC(=O)O)NC(=O)[C@H](CC(C)C)NC(=O)[C@H](CC(=O)O)NC(=O)CNC(=O)[C@H](CCCNC(=N)N)NC(=O)CNC(=O)[C@H](CCCNC(=N)N)NC1=O [EMD 271591, cyclo-(RGDLdALRG)] (cyclo(RGDL[dD]ALRG))

>  <-log Q>
-0,322

$$$$
>  <compound>
CC(C)C[C@@H]1NC(=O)[C@H](C)NC(=O)[C@@H](CC(=O)O)NC(=O)[C@H](CC(C)C)NC(=O)[C@H](CC(=O)O)NC(=O)CNC(=O)[C@H](CCCNC(=N)N)NC(=O)CNC(=O)CNC(=O)[C@H](CCCNC(=N)N)NC1=O [EMD 271592, cyclo-(RGDLdALRGG)] (cyclo(RGDL[dD]ALRGG))

>  <-log Q>
1,301

$$$$
>  <compound>
CC(C)C[C@@H]1NC(=O)[C@H](C)NC(=O)[C@@H](CC(=O)O)NC(=O)[C@H](CC(C)C)NC(=O)[C@H](CC(=O)O)NC(=O)CNC(=O)[C@H](CCCNC(=N)N)NC(=O)CNC(=O)CNC(=O)CNC(=O)CNC(=O)CNC(=O)[C@H](CCCNC(=N)N)NC1=O [EMD 272962, cyclo-(RGDLdALRGGGGG)] (cyclo(RGDL[dD]ALRGGGGG))

>  <-log Q>
1,337

$$$$
>  <compound>
CC(C)C[C@@H]1NC(=O)[C@H](C)NC(=O)[C@@H](CC(=O)O)NC(=O)[C@H](CC(C)C)NC(=O)[C@H](CC(=O)O)NC(=O)CNC(=O)[C@H](CCCNC(=N)N)NC(=O)CNC(=O)CNC(=O)CNC(=O)[C@H](CCCNC(=N)N)NC1=O [EMD 271593] (cyclo(RGDL[dD]ALRGGG))

>  <-log Q>
1,523

$$$$

----------
target: αvβ6 Rezeptor (Homo sapiens, UniProt P06756+P18564)
Construct: Die Immobilisierung von löslichem αvβ6 Rezeptor auf Microtiterplatten
experimental.details: αvβ6 / fibronectin receptor binding test (competition of peptide with biotinylated fibronectin on immobilised integrin, ELISA read-out)
reported.conditions: peptides Cyclo-(Arg-Gly-Asp-Leu-D-Asp-Ala-Leu-Arg-R^1), labelled by R^1; ratio to comparison compound EMD 271293
Non-standard residues stand in square brackets, D forms with d. Residues, ends and D or L forms follow the SMILES beside them.
readout.type: Q (IC50[Substanz] / IC50[EMD 271293])

>  <compound>
CC(C)C[C@@H]1NC(=O)[C@H](C)NC(=O)[C@@H](CC(=O)O)NC(=O)[C@H](CC(C)C)NC(=O)[C@H](CC(=O)O)NC(=O)CNC(=O)[C@H](CCCNC(=N)N)NC(=O)CNC(=O)CNC(=O)CNC(=O)[C@H](CCCNC(=N)N)NC1=O [EMD 271593] (cyclo(RGDL[dD]ALRGGG))

>  <observed.value>
0,03

$$$$
>  <compound>
CC(C)C[C@@H]1NC(=O)[C@H](C)NC(=O)[C@@H](CC(=O)O)NC(=O)[C@H](CC(C)C)NC(=O)[C@H](CC(=O)O)NC(=O)CNC(=O)[C@H](CCCNC(=N)N)NC(=O)CNC(=O)[C@H](CCCNC(=N)N)NC1=O [EMD 271591, cyclo-(RGDLdALRG)] (cyclo(RGDL[dD]ALRG))

>  <observed.value>
2,1

$$$$
>  <compound>
CC(C)C[C@@H]1NC(=O)[C@H](C)NC(=O)[C@@H](CC(=O)O)NC(=O)[C@H](CC(C)C)NC(=O)[C@H](CC(=O)O)NC(=O)CNC(=O)[C@H](CCCNC(=N)N)NC(=O)CNC(=O)CNC(=O)CNC(=O)CNC(=O)CNC(=O)CNC(=O)[C@H](CCCNC(=N)N)NC1=O [EMD 271594, cyclo-(RGDLdALRGGGGGG)] (cyclo(RGDL[dD]ALRGGGGGG))

>  <observed.value>
0,05

$$$$
>  <compound>
CC(C)C[C@@H]1NC(=O)[C@H](C)NC(=O)[C@@H](CC(=O)O)NC(=O)[C@H](CC(C)C)NC(=O)[C@H](CC(=O)O)NC(=O)CNC(=O)[C@H](CCCNC(=N)N)NC(=O)CNC(=O)CNC(=O)CNC(=O)CNC(=O)CNC(=O)[C@H](CCCNC(=N)N)NC1=O [EMD 272962, cyclo-(RGDLdALRGGGGG)] (cyclo(RGDL[dD]ALRGGGGG))

>  <observed.value>
0,046

$$$$
